Reference source: the supplement of paper PMC12317010

# measurement-description: collision cross section in nitrogen (drift tube, single-field); higher = larger gas-phase ion size;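 note: chemical standards at 10 µM analysed by drift tube IMS-QTOF MS in about 3.95 torr nitrogen, mean of duplicate injections differing ≤1%, mass error below 10 ppm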
# reported-conditions: ion type: [M+Na]; ion source: ESI; ion mode: Positive
Where a name gives a salt, the structure may show the parent alone.
Where collision cross section in nitrogen equals or exceeds 200 Å², the correct label is MET; where it does not, the label is NOT MET.

Solved cases below.
Task: Entry O=C(c1ccccc1)c1ccc(Cl)cc1 : is its collision cross section in nitrogen no less than 200 Å²?
Output: NOT MET

Task: Answer whether collision cross section in nitrogen of OC(Cc1ccccc1Cl)(Cn1nc[nH]c1=S)C1(Cl)CC1 (stereo not drawn) is greater than or equal to 200 Å².
Output: NOT MET

Task: Decide: is the reported value of collision cross section in nitrogen for CCOCCOC(=O)C=Cc1ccc(OC)cc1 [Cinoxate] equal to or greater than 200 Å²?
Output: NOT MET

Task: Quick check: does CCc1cc(C2=C(C(=O)O)N(c3ccccc3C(F)(F)F)S(=O)(=O)c3ccccc32)cc2c1OCO2 [Fandosentan potassium salt] have collision cross section in nitrogen greater than or equal to 200 Å²?
Output: MET

Others:
Task: # check: collision cross section in nitrogen of Cc1ccccc1OP(=O)(Oc1ccccc1C)Oc1ccccc1C [Tri-o-cresyl phosphate] is greater than or equal to 200 Å²
Output: NOT MET

Task: Tell me whether collision cross section in nitrogen is at least 200 Å² here: C#CCC1=C(C)C(OC(=O)C2C(C=C(C)C)C2(C)C)CC1=O (stereo not drawn)
Output: NOT MET

Task: For this molecule, is measured collision cross section in nitrogen 200 Å² or higher? Cc1cccc(N(C)C(=S)Oc2ccc3ccccc3c2)c1 [Tolnaftate]
Output: NOT MET
